Target: human full-length recombinant PKC βII (Homo sapiens)
Construct: Active human full-length recombinant PKC βII; purchased Invitrogen GmbH, Darmstadt, Germany
Sequence (P05771 1-673 isoform P05771-2): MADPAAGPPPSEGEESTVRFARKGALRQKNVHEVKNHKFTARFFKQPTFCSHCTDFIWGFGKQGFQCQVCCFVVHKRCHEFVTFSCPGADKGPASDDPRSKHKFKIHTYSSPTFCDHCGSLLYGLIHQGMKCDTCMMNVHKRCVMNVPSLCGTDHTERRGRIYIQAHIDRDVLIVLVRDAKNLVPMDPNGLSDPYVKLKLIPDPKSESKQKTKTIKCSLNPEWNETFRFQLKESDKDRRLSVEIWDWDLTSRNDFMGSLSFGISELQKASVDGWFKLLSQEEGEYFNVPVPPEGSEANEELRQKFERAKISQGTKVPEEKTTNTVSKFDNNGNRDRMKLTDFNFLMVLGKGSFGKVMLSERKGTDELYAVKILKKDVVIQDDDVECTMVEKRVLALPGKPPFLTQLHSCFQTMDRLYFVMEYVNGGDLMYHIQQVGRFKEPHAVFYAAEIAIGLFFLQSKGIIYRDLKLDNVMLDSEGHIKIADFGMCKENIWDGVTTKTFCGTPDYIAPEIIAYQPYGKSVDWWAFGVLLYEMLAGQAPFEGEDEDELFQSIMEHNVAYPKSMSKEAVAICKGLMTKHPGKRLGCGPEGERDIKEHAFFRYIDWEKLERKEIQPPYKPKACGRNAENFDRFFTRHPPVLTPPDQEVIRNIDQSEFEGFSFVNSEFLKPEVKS
Experiment: Determination of PKC βII inhibition (Caliper mobility-shift kinase assay, phosphorylation of fluorescein peptide substrate)
Type: biochemical
Details: final compound concentration 1.14 µM (±0.15 µM); 60 min incubation at 32 °C
experimental_readout: inhibition at 1.14 µM (%)

Recorded results for 5 compounds are shown here.
> print(dat)
                                   compound  reported.measurement
1  Cc1cc(C)cc(/C=C/c2n[nH]c3nc(-c4ccc(O)cc4)cc(C(=O)N4CCNCC4)c23)c1 [Example 40]                    99
2  Cc1cc(O)ccc1-c1cc(C(=O)N2CCNCC2)c2c(/C=C/c3ccccc3)n[nH]c2n1 [Example 7]                    96
3  O=C(c1cc(-c2ccc(O)cc2)nc2[nH]nc(/C=C/c3cccc(N4CCCC4)c3)c12)N1CCNCC1 [Example 28]                    94
4  O=C(c1cccnc1)N1CCN(C(=O)c2cc(-c3ccc(O)cc3)nc3[nH]nc(/C=C/c4ccccc4)c23)CC1 [Example 83]                    90
5  O=C(c1cc(-c2ccc(O)cc2)nc2[nH]nc(/C=C/c3ccccc3)c12)N1CCC2(CCNC2)C1 (stereo not shown) [Example 78]                    94

(1) CC(=O)c1ccc(/C=C/c2n[nH]c3nc(-c4ccc(O)cc4)cc(C(=O)N4CCNCC4)c23)cc1 [Example 57]
(2) COC(=O)N1CCN(C(=O)c2cc(-c3ccc(O)cc3)nc3[nH]nc(/C=C/c4ccccc4)c23)CC1 [Example 82]
**Q:** Consider entries 1 and 2 . Which has the numerically lower inhibition at 1.14 µM? // respond with label for picked entry
**A:** 2

----------
Target: human full-length recombinant PKC βII (Homo sapiens)
Construct: Active human full-length recombinant PKC βII; purchased Invitrogen GmbH, Darmstadt, Germany
Test: Determination of PKC βII inhibition (Caliper mobility-shift kinase assay, phosphorylation of fluorescein peptide substrate)
Type: biochemical
Settings: final compound concentration 1.14 µM (±0.15 µM); 60 min incubation at 32 °C
experimental_readout: inhibition at 1.14 µM (%)

Recorded results for 8 compounds are shown here.
> print(dat)
                                   compound                             target.system  reported.measurement
1  C[C@H]1CNCCN1C(=O)c1cc(-c2ccc(O)cc2F)nc2[nH]nc(/C=C/c3ccccc3)c12 [Example 11]  human full-length recombinant PKC βII (Homo sapiens)                    99
2  O=C(c1cc(-c2ccc(O)cc2)nc2[nH]nc(/C=C/c3cccc(Cl)c3)c12)N1CCNCC1 [Example 48]  human full-length recombinant PKC βII (Homo sapiens)                    97
3  O=C(c1cc(-c2ccc(O)cc2)nc2[nH]nc(/C=C/c3cccc(F)c3)c12)N1CCNCC1 [Example 71]  human full-length recombinant PKC βII (Homo sapiens)                    96
4  O=C(c1cc(-c2ccc(O)cc2)nc2[nH]nc(/C=C/c3ccccc3)c12)N1CCNCC1 [Example 2]  human full-length recombinant PKC βII (Homo sapiens)                    97
5  CN(C)C(=O)CN1CCN(C(=O)c2cc(-c3ccc(O)cc3)nc3[nH]nc(/C=C/c4ccccc4)c23)CC1 [Example 84]  human full-length recombinant PKC βII (Homo sapiens)                    54
6  CC(C)(O)C(=O)N1CCN(C(=O)c2cc(-c3ccc(O)cc3)nc3[nH]nc(/C=C/c4ccccc4)c23)CC1 [Example 86]  human full-length recombinant PKC βII (Homo sapiens)                    93
7  COc1cccc(/C=C/c2n[nH]c3nc(-c4ccc(O)cc4)cc(C(=O)N4CCNCC4)c23)c1 [Example 56]  human full-length recombinant PKC βII (Homo sapiens)                   100
8  Cc1cc(/C=C/c2n[nH]c3nc(-c4ccc(O)cc4)cc(C(=O)N4CCNCC4)c23)ccc1C#N [Example 29]  human full-length recombinant PKC βII (Homo sapiens)                    96

(I) Cc1ccc(/C=C/c2n[nH]c3nc(-c4ccc(O)cc4)cc(C(=O)N4CCNCC4)c23)c(C)c1 [Example 49]
(II) O=C(c1cc(-c2ccc(O)cc2)nc2[nH]nc(/C=C/c3ccc(Cl)c(Cl)c3)c12)N1CCNCC1 [Example 45]
(III) CCC(CC)C(=O)N1CCN(C(=O)c2cc(-c3ccc(O)cc3)nc3[nH]nc(/C=C/c4ccccc4)c23)CC1 [Example 80]
**Q:** In this exercise, place the 3 compounds in ascending sequence of their recorded inhibition at 1.14 µM. I would appreciate it if you listed the labels in the requested order.
**A:** III, II, I

meta.source: patent EP2567959B1
